Field: TGI. Provide a value for each of the compounds that follow.
Test system: MALME-3M melanoma
assay.comment: NCI tumour cell line growth inhibition, 48 h

Exercise: # lookup: TGI of CCOC(=O)/C(C#N)=C(O)/C(=C/c1ccccc1Cl)NC(=O)c1ccccc1
Solution: > 100 µM

Exercise: # lookup: TGI of O=c1cc/c(=N\Nc2ccccc2)c(=O)/c1=N/Nc1ccccc1
Solution: > 50 µM

Exercise: # lookup: TGI of C/C(=N\NC(=S)N(C)C)c1ncc[nH]1
Solution: 21.6 µM

Exercise: # lookup: TGI of Cc1cc2c(C(C)C)c(O)c(O)c3coc(/c1=c1/c(C)cc4c(C(C)C)c(=O)c(=O)c5coc1c45)c32
Solution: 29.1 µM

Exercise: # lookup: TGI of O=C(Nc1ccccc1Cl)c1cnc2ccc(C3CCNCC3)cn12
Solution: > 94.5 µM

Exercise: # lookup: TGI of Oc1cn(-c2ccc(Cl)cc2)nc1-c1nnc(Nc2ccccc2)o1
Solution: 50.1 µM

Exercise: # lookup: TGI of S=C(Nc1ccccc1)c1ccccn1
Solution: > 100 µM

Exercise: # lookup: TGI of COc1ccc(/C=C2/C(=O)N(C(=O)c3ccc(Cl)cc3)N=C2C)cc1OC
Solution: > 100 µM

Exercise: # lookup: TGI of CC(=O)OCC(=O)[C@@]1(O)[C@H](C)C[C@H]2[C@@H]3C=C(C)C4=Cc5c(cnn5-c5ccc(F)cc5)C[C@]4(C)[C@H]3[C@@H](O)C[C@@]21C
Solution: 8.98 µM

Exercise: # lookup: TGI of O=C(Oc1ccccc1)c1cc(O)c(O)c(O)c1
Solution: > 100 µM

Exercise: # lookup: TGI of O=c1cc(-c2ccc(O)c(O)c2)oc2cc(OC3OC(CO)C(O)C(O)C3O)cc(O)c12 (stereo not drawn)
Solution: > 100 µM

Exercise: # lookup: TGI of O=C(CCN(CCO)CCO)Nc1ccc2c(c1)C(=O)c1ccc(NC(=O)CCN(CCO)CCO)cc1C2=O
Solution: 27.9 µM

Exercise: # lookup: TGI of Cc1cccc(C(C)(C)C)c1NC(=O)CC1C(=O)Nc2ccccc2S1=O (stereo not drawn)
Solution: > 100 µM

Exercise: # lookup: TGI of O=C(Nc1ccc(C(F)(F)F)cc1[N+](=O)[O-])C(=O)C(C(=O)c1ccc2ccccc2c1)C1OC(=O)c2ccccc21 (stereo not drawn)
Solution: 25.8 µM

Exercise: # lookup: TGI of Nc1nc(-n2cccn2)nc(-n2cccn2)c1Br
Solution: > 100 µM

Exercise: # lookup: TGI of Oc1ccccc1C=Nc1ccc(Oc2ccc(Cl)cc2)c(Cl)c1
Solution: 44.2 µM

Exercise: # lookup: TGI of COc1ccc(C2(CN(C)C)COc3cc(OC)c(OC)cc3C2=O)cc1OC (stereo not drawn)
Solution: > 100 µM

Exercise: # lookup: TGI of O=[N+]([O-])c1ccc(Cc2nc3ccccc3s2)cc1
Solution: > 100 µM

Exercise: # lookup: TGI of O=c1c2cc(Br)ccc2oc2ccc(Br)cc12
Solution: > 100 µM

Exercise: # lookup: TGI of N#Cc1nc(-c2cccc(Br)c2)cc(-c2ccc(Nc3nc(N4CCCCC4)nc(N4CCCCC4)n3)cc2)c1N
Solution: 3.1 µM

Exercise: # lookup: TGI of CCCOc1ccc(/C=C\c2cc(OC)c(OC)c(OC)c2)cc1
Solution: > 100 µM

Exercise: # lookup: TGI of CCCOc1ccc(/C=C/c2cc(OC)c(OC)c(OC)c2)cc1
Solution: 84.8 µM

Exercise: # lookup: TGI of CC(=O)NNC=N/C(C#N)=C(\N)C#N
Solution: > 100 µM

Exercise: # lookup: TGI of [N-]=[N+]=Nc1ncc(-c2ccc(C(F)(F)F)cc2)c(NC2CCCCCC2)n1
Solution: > 10 µM

Exercise: # lookup: TGI of CCN(CC)c1ccc(/C=N/NC(=O)c2ccc(Nc3ccnc(C(F)(F)F)c3)cc2)c(O)c1
Solution: 5.7 µM

Exercise: # lookup: TGI of CCCCCCCCCC(=O)OCC1(CO)C/C(=C/CC(C(C)C)C(C)C)C(=O)O1 (stereo not drawn)
Solution: 82.3 µM

Exercise: # lookup: TGI of Cc1cccc(C(C)O)n1 (stereo not drawn)
Solution: > 100 µM

Exercise: # lookup: TGI of COc1ccc2c(c1)c(Cc1c(C)n(C)c3ccc(OC)cc13)c(C)n2C
Solution: > 100 µM

Exercise: # lookup: TGI of COc1ccc(C2CC(=O)Nc3c2c(C)nn3-c2nc3ccccc3[nH]2)cc1 (stereo not drawn)
Solution: 8.04 µM

Exercise: # lookup: TGI of CCN(CC)CCC(=O)Nc1cccc2c1C(=O)c1c(c(O)c3ccccc3c1O)C2=O
Solution: 88.7 µM

Exercise: # lookup: TGI of COc1cc2c(cc1OCCCCCOc1cc(-c3ccc(F)cc3)nc(C)n1)N=C[C@@H]1CCCN1C2=O
Solution: > 68.7 µM

Exercise: # lookup: TGI of CSC1=N/C(=C\c2cccs2)C(=O)N1CN1CCCCC1
Solution: > 100 µM

Exercise: # lookup: TGI of CCCCOC(=O)/C(CC(=O)C=C(C)C)=N\NS(=O)(=O)c1ccc(C)cc1
Solution: > 100 µM

----------
Test system: MALME-3M melanoma
assay.comment: NCI tumour cell line growth inhibition, 48 h; in the data active = GI50 below about 0.43 µM; inactive = the rest
# output must be one of TRUE (active), FALSE (inactive)

Exercise: Please indicate how the test categorized O=C1N=C2c3c(sc4c3CCCC4)N=CN2C1N=Nc1ccc(Cl)cc1 (centres undefined) .
Solution: FALSE

Exercise: Please indicate how the test categorized CN(C)c1cccc2[nH]c(-c3[nH]ncc3Nc3ccnc(N)n3)nc12 .
Solution: TRUE

Exercise: Please indicate how the test categorized COc1cc(/C=C2\CCCC3=C2NC(N)=NC3c2cc(OC)c(OC)c(OC)c2)cc(OC)c1OC (centres undefined) .
Solution: FALSE

Exercise: Please indicate how the test categorized Cc1cccc2c3c(sc12)C(c1ccc(Cl)cc1)C(C#N)=C(/N=C/c1ccc(Cl)cc1)O3 (centres undefined) .
Solution: FALSE

Exercise: Please indicate how the test categorized COC(=O)C1=CN(CC2=CC(=O)C(C)=CC2=O)C=C(C(=O)OC)C1c1cccc(OC)c1OC .
Solution: FALSE

Exercise: Please indicate how the test categorized S=C(Nc1ccccc1)c1ccccn1 .
Solution: FALSE

Exercise: Please indicate how the test categorized C=C1C(=O)O[C@H]2[C@H]1CC/C(COC(=O)NCCc1ccc(OC)cc1)=C\CC[C@@]1(C)O[C@@H]21 .
Solution: FALSE

Exercise: Please indicate how the test categorized COc1ccc2c(c1)[nH]c(=O)c1c3cccnc3cn21 .
Solution: TRUE

Exercise: Please indicate how the test categorized CCCCCCn1c(-c2ccc(C(=O)O/N=C(\N)c3ccc(OC)cc3)cc2)nc(-c2ccccc2)c1-c1ccccc1 .
Solution: FALSE

----------
Test system: SK-MEL-2 melanoma
assay.comment: NCI tumour cell line growth inhibition, 48 h
reported.endpoint: log10(TGI) (log10 of the value in µM)
Heads up: the numbers are on a log10 scale; they represent TGI in µM.

Exercise: # lookup: log10(TGI) of N#Cc1cnn2c1n[n+]([O-])c1ccc(Cl)cc12
Solution: 1.24

Exercise: # lookup: log10(TGI) of CCN(CC)c1ccc(/C=C/C2=NN(c3cccc(S(=O)(=O)O)c3)C3(C2)C(Cl)C(=O)N3c2nc3ccccc3s2)cc1 (stereo unspecified)
Solution: 1.47

Exercise: # lookup: log10(TGI) of CCN=C1NN=C(c2ccccc2)c2cc(Cl)ccc2N1
Solution: 1.52

Exercise: # lookup: log10(TGI) of COc1ccc2c(c1)[nH]c(=O)c1c3cccnc3cn21
Solution: 1.05

Exercise: # lookup: log10(TGI) of CC(SC1=CC(=O)c2c(Cl)ccc(O)c2C1=O)C(=O)O (stereo unspecified)
Solution: 1.53

Exercise: # lookup: log10(TGI) of COC(=O)n1c(=O)nc2c3c(ncn21)Oc1c(c(-c2ccccc2)nn1-c1ccccc1)C3c1ccc(Cl)cc1 (stereo unspecified)
Solution: 0.49

Exercise: # lookup: log10(TGI) of OCCNc1nc(NCCO)nc(Nc2ccc(C3=NN(c4cc(Cl)cc(Cl)c4)C(c4ccc(Cl)cc4)C3)cc2)n1 (stereo unspecified)
Solution: 0.66

Exercise: # lookup: log10(TGI) of CCc1cc(Cc2cc(CC)c(NC(=O)C3=CC(=O)CC(c4ccc(OC)cc4)O3)c(CC)c2Cl)c(Cl)c(CC)c1NC(=O)C1=CC(=O)CC(c2ccc(OC)cc2)O1 (stereo unspecified)
Solution: 1.56

Exercise: # lookup: log10(TGI) of CC(C)=CCC/C(C)=C/Cc1cc(/C=C/c2cc(O)c(CC=C(C)C)c(O)c2)cc(O)c1O
Solution: 0.97

Source of measurements: PubChem BioAssay (NCI)
